molecular target: Ribosomal protein S6 kinase alpha-3 (Homo sapiens, UniProt P51812); assay: Inhibition of RSK2 (unknown origin)
Sequence (P51812 whole entry): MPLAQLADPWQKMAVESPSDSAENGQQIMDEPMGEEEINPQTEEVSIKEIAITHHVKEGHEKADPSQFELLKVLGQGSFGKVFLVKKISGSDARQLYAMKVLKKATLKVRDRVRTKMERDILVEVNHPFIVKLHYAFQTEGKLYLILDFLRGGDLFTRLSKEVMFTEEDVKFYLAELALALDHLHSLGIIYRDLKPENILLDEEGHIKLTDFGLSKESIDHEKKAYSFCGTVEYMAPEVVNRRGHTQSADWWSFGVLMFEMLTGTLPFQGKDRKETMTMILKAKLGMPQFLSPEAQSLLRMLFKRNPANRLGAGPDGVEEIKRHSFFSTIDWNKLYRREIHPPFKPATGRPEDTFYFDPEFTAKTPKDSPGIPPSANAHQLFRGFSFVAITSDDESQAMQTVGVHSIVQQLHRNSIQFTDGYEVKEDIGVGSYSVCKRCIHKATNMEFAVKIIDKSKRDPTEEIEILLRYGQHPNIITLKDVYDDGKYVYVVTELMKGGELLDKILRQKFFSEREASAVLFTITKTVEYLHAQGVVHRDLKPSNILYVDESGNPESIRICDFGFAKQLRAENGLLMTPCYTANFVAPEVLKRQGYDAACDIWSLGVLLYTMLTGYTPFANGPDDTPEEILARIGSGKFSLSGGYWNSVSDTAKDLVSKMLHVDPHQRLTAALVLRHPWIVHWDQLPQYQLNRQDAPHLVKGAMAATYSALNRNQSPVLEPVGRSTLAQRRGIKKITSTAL
pIC50: −log10 of the molar value.

[
  {
    "smiles code": "CN1CCN(c2ccc(-c3c(-c4ccnc(F)c4)cnc4[nH]ccc34)cc2)CC1",
    "pIC50": 5.96
  },
  {
    "smiles code": "CN1CCN(c2ccc(-c3c(-c4ccc(N)nc4)cnc4[nH]ccc34)cc2)CC1",
    "pIC50": 6.09
  },
  {
    "smiles code": "Cc1ccc(-c2c(-c3cc(F)c(O)c(F)c3)cnc3[nH]ccc23)cc1",
    "pIC50": 8.70
  },
  {
    "smiles code": "CN1CCN(c2ccc(-c3c(-c4cc(F)cc(F)c4)cnc4[nH]ccc34)cc2)CC1",
    "pIC50": 7.42
  },
  {
    "smiles code": "Oc1c(F)cc(-c2cnc3[nH]ccc3c2-c2ccc(N3CCOCC3)cc2)cc1F",
    "pIC50": 8.70
  },
  {
    "smiles code": "CN1CCN(c2ccc(-c3c(-c4cc(F)c(O)c(F)c4)cnc4[nH]ccc34)cc2)CC1",
    "pIC50": 9.52
  }
]
